B1: ZER1 (parent)
chain: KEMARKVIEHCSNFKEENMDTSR

- Variants of: B1
- protocol_details: protein stability index of a GFP-peptide fusion (GPS, HEK-293T) (PSI 1-6); higher = more stable;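 note: lentivirally expressed fusions sorted by FACS into six bins by GFP to DsRed ratio, PSI derived from sequencing read proportions per bin multiplied by bin number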
- details: c terminus: native
Label scheme for protein stability index: lower than 3 is 0, 3 and above is 1.

Check out these entries, answers already filled in.
K15L : 1
M3V : 1
E17C : 0
T21I : 1
A4L : 0

### Prompt Check if protein stability index >= 3 (inclusive). Item: D20S
### Response 0

### Prompt Check this variant for protein stability index at or above 3: M3A
### Response 1
